test_target: UniProtKB Q05397
Sequence (Q05397 whole entry): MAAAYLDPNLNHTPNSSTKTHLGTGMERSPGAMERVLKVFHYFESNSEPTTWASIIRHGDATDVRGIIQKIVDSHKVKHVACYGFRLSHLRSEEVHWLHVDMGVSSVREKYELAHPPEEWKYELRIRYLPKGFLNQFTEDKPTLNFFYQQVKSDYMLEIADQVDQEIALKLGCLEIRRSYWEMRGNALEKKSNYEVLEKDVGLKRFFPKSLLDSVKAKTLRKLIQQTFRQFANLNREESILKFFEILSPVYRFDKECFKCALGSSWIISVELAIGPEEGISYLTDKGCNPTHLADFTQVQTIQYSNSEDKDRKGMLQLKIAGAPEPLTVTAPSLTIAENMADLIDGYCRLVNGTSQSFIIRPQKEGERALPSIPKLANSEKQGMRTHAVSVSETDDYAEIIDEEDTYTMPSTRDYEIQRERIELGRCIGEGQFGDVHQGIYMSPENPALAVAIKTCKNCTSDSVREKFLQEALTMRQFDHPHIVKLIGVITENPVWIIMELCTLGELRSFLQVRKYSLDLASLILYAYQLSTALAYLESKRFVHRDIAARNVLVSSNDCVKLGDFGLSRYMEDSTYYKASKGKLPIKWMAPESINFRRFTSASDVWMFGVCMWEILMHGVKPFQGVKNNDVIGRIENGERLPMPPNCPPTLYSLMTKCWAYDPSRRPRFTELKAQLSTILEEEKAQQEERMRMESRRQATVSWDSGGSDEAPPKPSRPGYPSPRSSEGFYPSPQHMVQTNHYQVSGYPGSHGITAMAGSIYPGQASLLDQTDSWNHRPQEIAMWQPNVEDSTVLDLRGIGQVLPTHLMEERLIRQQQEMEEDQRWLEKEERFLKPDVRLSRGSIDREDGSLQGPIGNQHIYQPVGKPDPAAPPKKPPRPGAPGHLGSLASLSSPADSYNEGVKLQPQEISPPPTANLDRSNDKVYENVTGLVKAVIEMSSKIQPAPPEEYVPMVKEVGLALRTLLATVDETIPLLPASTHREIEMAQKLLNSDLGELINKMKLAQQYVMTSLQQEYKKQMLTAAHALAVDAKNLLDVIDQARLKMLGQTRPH
experiment_notes: Inhibition of human recombinant FAK
measurement_type: IC50 (µM)
Give just the numeric value; µM need not be written.

Query block: Recorded IC50 for COc1cc(C2=C(c3c[nH]c4ccccc34)CNC2=O)cc(OC)c1OC with UniProtKB Q05397, please?
Result block: 9.5

Query block: Recorded IC50 for COc1cc(C2=C(c3cn(COc4ccccc4)c4ccccc34)CNC2=O)cc(OC)c1OC with UniProtKB Q05397, please?
Result block: 43

Query block: Recorded IC50 for COCn1cc(C2=C(c3cc(OC)c(OC)c(OC)c3)C(=O)NC2)c2ccccc21 with UniProtKB Q05397, please?
Result block: 35

----------
Can you tell me IC50 for the items I'm about to list?
test_target: Serine/threonine-protein kinase PLK4 (Homo sapiens, UniProt O00444)
Sequence (O00444 whole entry): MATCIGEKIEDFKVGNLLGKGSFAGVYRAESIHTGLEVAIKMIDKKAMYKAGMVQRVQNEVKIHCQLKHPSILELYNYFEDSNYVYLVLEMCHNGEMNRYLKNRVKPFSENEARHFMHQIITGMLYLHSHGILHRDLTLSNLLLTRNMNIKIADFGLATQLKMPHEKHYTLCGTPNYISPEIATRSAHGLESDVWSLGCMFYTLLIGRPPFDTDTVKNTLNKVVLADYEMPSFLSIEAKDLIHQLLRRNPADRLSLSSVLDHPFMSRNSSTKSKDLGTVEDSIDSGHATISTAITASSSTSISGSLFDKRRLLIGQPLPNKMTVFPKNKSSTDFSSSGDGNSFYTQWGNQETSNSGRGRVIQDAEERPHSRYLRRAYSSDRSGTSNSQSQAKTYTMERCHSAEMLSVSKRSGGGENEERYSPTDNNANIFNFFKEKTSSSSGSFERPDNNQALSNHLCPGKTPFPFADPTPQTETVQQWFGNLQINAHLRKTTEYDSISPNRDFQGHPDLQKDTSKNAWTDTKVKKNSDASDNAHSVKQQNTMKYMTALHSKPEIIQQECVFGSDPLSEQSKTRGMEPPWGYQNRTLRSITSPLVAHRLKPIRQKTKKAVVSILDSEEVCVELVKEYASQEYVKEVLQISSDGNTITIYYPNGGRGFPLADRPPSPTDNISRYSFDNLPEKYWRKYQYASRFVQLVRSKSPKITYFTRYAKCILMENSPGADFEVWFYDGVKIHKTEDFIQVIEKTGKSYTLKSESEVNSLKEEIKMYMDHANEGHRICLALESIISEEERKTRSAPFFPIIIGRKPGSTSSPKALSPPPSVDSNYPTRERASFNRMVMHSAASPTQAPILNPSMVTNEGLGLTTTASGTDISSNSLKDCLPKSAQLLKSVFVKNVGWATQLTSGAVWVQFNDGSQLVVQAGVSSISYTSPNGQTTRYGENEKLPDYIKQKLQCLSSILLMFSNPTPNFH
experiment_notes: Inhibition of human recombinant SAK
Give just the numeric value; µM need not be written.

Query block: Sample COc1cc(C2=C(c3c[nH]c4ccccc34)CNC2=O)cc(OC)c1OC — what was its IC50?
Result block: 10

Query block: Sample COc1cc(C2=C(c3cn(CC4COC(C)(C)O4)c4ccccc34)CNC2=O)cc(OC)c1OC (centres undefined) — what was its IC50?
Result block: 23

Query block: Sample COc1ccc(C2=C(c3c[nH]c4ccccc34)C(=O)NC2)cc1 — what was its IC50?
Result block: 12

Query block: Sample COc1cc(C2=C(c3cn(CC(O)CO)c4ccccc34)CNC2=O)cc(OC)c1OC (centres undefined) — what was its IC50?
Result block: 16

Source of measurements: ChEMBL document CHEMBL1157465
